target.system: UniProt Q5KTC7
Sequence (Q5KTC7 34-362): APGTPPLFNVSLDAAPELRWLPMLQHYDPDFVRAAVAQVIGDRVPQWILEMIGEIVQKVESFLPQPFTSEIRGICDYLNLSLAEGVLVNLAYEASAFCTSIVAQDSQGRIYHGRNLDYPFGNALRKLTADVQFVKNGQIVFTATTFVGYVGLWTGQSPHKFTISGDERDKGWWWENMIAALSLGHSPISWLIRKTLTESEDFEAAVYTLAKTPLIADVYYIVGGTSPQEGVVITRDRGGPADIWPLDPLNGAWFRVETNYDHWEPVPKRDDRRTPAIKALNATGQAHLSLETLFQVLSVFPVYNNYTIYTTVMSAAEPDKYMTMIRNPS
outcome.measure: IC50 (µM)

CCc1ccc(CCCCOC(=O)N[C@H]2CNC2=O)cc1 [Example 39]    1

P = O=C(N[C@H]1CNC1=O)OCc1ccc(C2CCCC2)cc1 [Example 55]
Q = Cc1cccc(C)c1CCCCOC(=O)N[C@H]1CNC1=O [Example 14]
R = Cc1cccc(-c2ccc(COC(=O)N[C@H]3CNC3=O)cc2)c1 [Example 43]
S = O=C(N[C@H]1CNC1=O)OCCCCC1CCOCC1 [Example 48]
Exam item: list the entries in increasing order of IC50. Rank the items, then write their labels in that order.
P, R, Q, S
(P: 0.031 µM, R: 0.87 µM, Q: 8.1 µM, S: 12.6 µM)

====

UniProtKB Q02083 data, read-out IC50
Sequence (Q02083 29-359): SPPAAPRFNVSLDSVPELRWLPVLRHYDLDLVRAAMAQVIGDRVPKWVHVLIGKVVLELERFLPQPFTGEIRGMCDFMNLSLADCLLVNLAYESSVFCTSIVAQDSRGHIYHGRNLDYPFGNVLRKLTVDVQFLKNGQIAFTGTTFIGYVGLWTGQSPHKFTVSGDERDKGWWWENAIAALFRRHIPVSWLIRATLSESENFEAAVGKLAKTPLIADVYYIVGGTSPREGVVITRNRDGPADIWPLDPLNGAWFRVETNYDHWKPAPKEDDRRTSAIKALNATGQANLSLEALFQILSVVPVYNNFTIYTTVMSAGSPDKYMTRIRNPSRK
outcome.measure: IC50 (nM)

// below: answered compounds
O=C(N[C@H]1CNC1=O)OCc1ccc(C23CC4CC(CC(C4)C2)C3)cc1    2100
C[C@@H]1NC(=O)[C@@H]1NC(=O)OCc1ccc(C2CCCCC2)cc1    619
O=C(N[C@H]1CNC1=O)OCc1ccc(-c2ccccc2)c(F)c1    237
CCCCC1CCC(OC(=O)N[C@H]2CNC2=O)CC1 (mixture of isomers)    323
COc1ccc(CCCCOC(=O)N[C@H]2CNC2=O)cc1    573

A = O=C(N[C@H]1CNC1=O)OCc1ccc(C2CC3CCC2C3)cc1 (mixture of isomers)
B = CCCCOc1ccc(COC(=O)N[C@H]2CNC2=O)cc1
Looking at A and B , which one comes out lower in IC50 terms? Give the label under which the chosen entry appears.
A

====

target.system: r-NAAA (Rattus norvegicus)
Sequence (Q5KTC7 34-362): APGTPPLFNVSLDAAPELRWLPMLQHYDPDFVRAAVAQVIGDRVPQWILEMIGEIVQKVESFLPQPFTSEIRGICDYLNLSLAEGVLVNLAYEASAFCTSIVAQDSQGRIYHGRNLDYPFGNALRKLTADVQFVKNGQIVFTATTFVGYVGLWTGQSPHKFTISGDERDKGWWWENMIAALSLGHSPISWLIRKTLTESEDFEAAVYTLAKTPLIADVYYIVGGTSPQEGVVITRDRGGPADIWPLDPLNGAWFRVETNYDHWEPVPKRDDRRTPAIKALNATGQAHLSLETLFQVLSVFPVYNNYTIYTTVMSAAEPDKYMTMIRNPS
outcome.measure: IC50 (nM)

a = CCCCC/C=C\CCOC(=O)N[C@H]1CNC1=O [Example 10]
b = CCCCc1ccc(COC(=O)N[C@H]2CNC2=O)cc1 [Example 26]
Form field 'greater IC50' accepts a or b ; which applies? Give the label under which the chosen entry appears.
a
(a: 250 nM, b: 46 nM)

a = CCCCCCOC(=O)N[C@H]1CNC1=O [Example 23]
b = O=C(N[C@H]1CNC1=O)OCCCCCc1ccccc1 [Example 3]
c = O=C(N[C@H]1CNC1=O)OCc1ccc(Cc2ccccc2)cc1 [Example 34]
d = CCCCC/C=C/CCOC(=O)N[C@H]1CNC1=O [Example 9]
Please rank these molecules by IC50 in descending order. Rank the items, then write their labels in that order.
a, b, c, d

I = O=C(N[C@H]1CNC1=O)OCc1ccc(-c2ccccc2)cc1 [Example 17]
II = O=C(N[C@H]1CNC1=O)OCCCCc1ccc(C(F)(F)F)cc1 [Example 38]
Looking at I and II , which one comes out lower in IC50 terms? Give the label under which the chosen entry appears.
I
(I: 310 nM, II: 670 nM)
